molecular target: T1, human recombinant melanocortin-1 receptor (human, UniProt Q01726 1-317); assay: competitive inhibition of labelled NDP-α-MSH, hMC1-R membranes
T1 construct: whole, on cells; membrane homogenates of HEK-293 cells; also called hMC1-R
T1 sequence (Q01726 whole entry): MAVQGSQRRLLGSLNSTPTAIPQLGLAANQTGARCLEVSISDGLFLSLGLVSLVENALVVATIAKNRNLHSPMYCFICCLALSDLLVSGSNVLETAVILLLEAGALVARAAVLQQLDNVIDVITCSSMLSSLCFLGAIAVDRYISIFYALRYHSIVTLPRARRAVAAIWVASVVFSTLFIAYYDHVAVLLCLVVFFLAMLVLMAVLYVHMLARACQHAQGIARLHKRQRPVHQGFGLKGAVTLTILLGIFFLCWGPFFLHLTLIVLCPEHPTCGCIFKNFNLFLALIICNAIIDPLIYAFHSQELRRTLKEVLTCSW
pKi: −log10 of the molar value. Bridge positions count the residues as written; N and C are the ends. Square brackets hold non-standard residues; d marks the D form. Aad = N[C@@H](CCCC(=O)O)C(=O)O; Orn = NCCC[C@H](N)C(=O)O; Dab = NCC[C@H](N)C(=O)O
Measurement Type: pKi

Examples from the recorded data:
Ac-RKN[dF]RWD-NH2 (lactam 2-7) [Ac-Arg-cyclo(Lys-Asn-D-Phe-Arg-Trp-Asp)-NH2]	6.62
RKNFRXD (HELM PEPTIDE1{[ac].R.K.N.[dF].R.[O=C([C@H](Cc1ccc2ccccc2c1)N[*:1])[*:2]].D.[am]}$PEPTIDE1,PEPTIDE1,3:R3-8:R3$$$V2.0; SMILES CC(=O)N[C@@H](CCCNC(=N)N)C(=O)N[C@H]1CCCCNC(=O)C[C@@H](C(N)=O)NC(=O)[C@H](Cc2ccc3ccccc3c2)NC(=O)[C@H](CCCNC(=N)N)NC(=O)[C@@H](Cc2ccccc2)NC(=O)[C@H](CC(N)=O)NC1=O, also called peptide No. 162) [Ac-Arg-cyclo(Lys-Asn-D-Phe-Arg-Nal 2-Asp)-NH2]	6.59

I. Ac-R[Aad]N[dF]RW[Dab]-NH2 (lactam 2-7, also called peptide No. 160) [Ac-Arg-cyclo(hGlu-Asn-D-Phe-Arg-Trp-Dab)-NH2]
II. Ac-[dR][Orn]N[dF]RWE-NH2 (lactam 2-7, also called peptide No. 156) [Ac-D-Arg-cyclo(Orn-Asn-D-Phe-Arg-Trp-Glu)-NH2]
// max by pKi over [ I , II ] # respond with the chosen item's label I
(I: 6.53, II: 6.08)
